# Tested on: K86415-001-R-J1-PDC complex spheroids, viability
# Assay details: Anticancer human tumor K86415-001-R-J1-PDC patient-derived lung adenocarcinoma cell line growth inhibition [RAS]
# Experimental parameters: second compound 0.316 µM; first compound 0.00316 µM; stronger effect = lower value
Checkbox rule: viability, T/C lower than 70% = Criterion met; viability, T/C not lower than 70% = Criterion not met.

{"columns": ["Compound", "Group"],
 "data": [
  ["CCN1CCN(Cc2ccc(Nc3ncc(F)c(-c4cc(F)c5nc(C)n(C(C)C)c5c4)n3)nc2)CC1 + C#Cc1c(F)ccc2cc(O)cc(-c3ncc4c(N5CC6CCC(C5)N6)nc(OCC56CCCN5CC(F)C6)nc4c3F)c12", "Criterion not met"],
  ["C=CC(=O)Nc1cc(Nc2nccc(-c3cn(C)c4ccccc34)n2)c(OC)cc1N(C)CCN(C)C + C=CC(=O)N1CCN(c2nc(OCC3CCCN3C)nc3c(F)c(-c4nc(N)cc(C)c4C(F)(F)F)c(Cl)cc23)C(C)C1", "Criterion met"],
  ["Nc1ccn(C2OC(CO)C(O)C2(F)F)c(=O)n1 (centres undefined) + C=CC(=O)N1CCN(c2nc(OCC3CCCN3C)nc3c(F)c(-c4nc(N)cc(C)c4C(F)(F)F)c(Cl)cc23)C(C)C1", "Criterion met"],
  ["CC(C)n1nc(-c2ccc3oc(N)nc3c2)c2c(N)ncnc21 + C=CC(=O)N1CCN(c2nc(OCC3CCCN3C)nc3c(F)c(-c4nc(N)cc(C)c4C(F)(F)F)c(Cl)cc23)C(C)C1", "Criterion met"],
  ["C=CC(=O)N1CCN(c2nc(OCC3CCCN3C)nc3c(F)c(-c4nc(N)cc(C)c4C(F)(F)F)c(Cl)cc23)C(C)C1 (centres undefined) + C#Cc1c(F)ccc2cc(O)cc(-c3ncc4c(N5CC6CCC(C5)N6)nc(OCC56CCCN5CC(F)C6)nc4c3F)c12", "Criterion met"],
  ["Nc1ccn(C2OC(CO)C(O)C2(F)F)c(=O)n1 (centres undefined) + C#Cc1c(F)ccc2cc(O)cc(-c3ncc4c(N5CC6CCC(C5)N6)nc(OCC56CCCN5CC(F)C6)nc4c3F)c12", "Criterion not met"],
  ["O=C(c1ccc(F)c(F)c1Nc1ccc(I)cc1F)N1CC(O)([C@@H]2CCCCN2)C1 + C=CC(=O)N1CCN(c2nc(OCC3CCCN3C)nc3c(F)c(-c4nc(N)cc(C)c4C(F)(F)F)c(Cl)cc23)C(C)C1", "Criterion met"],
  ["O=C(c1ccc(F)c(F)c1Nc1ccc(I)cc1F)N1CC(O)([C@@H]2CCCCN2)C1 + C#Cc1c(F)ccc2cc(O)cc(-c3ncc4c(N5CC6CCC(C5)N6)nc(OCC56CCCN5CC(F)C6)nc4c3F)c12", "Criterion not met"],
  ["CC(C)n1nc(-c2ccc3oc(N)nc3c2)c2c(N)ncnc21 + C#Cc1c(F)ccc2cc(O)cc(-c3ncc4c(N5CC6CCC(C5)N6)nc(OCC56CCCN5CC(F)C6)nc4c3F)c12", "Criterion not met"]
]}

----------
# Tested on: K86415-001-R-J1-PDC complex spheroids, viability
# Assay details: Anticancer human tumor K86415-001-R-J1-PDC cell line growth inhibition [RAS];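 note: spheroids exposed to agents for seven days before readout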
# Experimental parameters: curve of first compound; second compound 0.1 µM
Result type: IC50

{"columns": ["Compound", "Observed"],
 "data": [
  ["NC1c2ccccc2OC12CCN(c1cnc3c(N4CCCc5ncccc54)n[nH]c3n1)CC2 (stereo not drawn) + C=CC(=O)N1CCN(c2nc(OCC3CCCN3C)nc3c(F)c(-c4nc(N)cc(C)c4C(F)(F)F)c(Cl)cc23)C(C)C1", "< 31.6 nM"],
  ["CCN1CCN(Cc2ccc(Nc3ncc(F)c(-c4cc(F)c5nc(C)n(C(C)C)c5c4)n3)nc2)CC1 + C#Cc1c(F)ccc2cc(O)cc(-c3ncc4c(N5CC6CCC(C5)N6)nc(OCC56CCCN5CC(F)C6)nc4c3F)c12", "> 1000 nM"],
  ["C[C@@H](NC(=O)c1ncnc(N)c1Cl)c1ncc(C(=O)Nc2cc(C(F)(F)F)c(Cl)cn2)s1 + C#Cc1c(F)ccc2cc(O)cc(-c3ncc4c(N5CC6CCC(C5)N6)nc(OCC56CCCN5CC(F)C6)nc4c3F)c12", "> 10000 nM"]
]}
